Tested on: MRSA BAA-44
Assay: MIC of antibiotics in absence and presence of 11b (broth microdilution)
Assay type: cell-based, S. aureus
Conditions: in the presence of 10 μM 11b
Experimental: The MICs of a variety of antibiotics in the presence and absence of 11b, respectively. In addition to methicillin, BAA-44 is also resistant to a wide range of antibiotics, such as tetracycline, erythromycin, and daptomycin. […] The minimal inhibitory concentrations (MICS) of antimicrobial compounds and 11b were determined by the broth microdilution method detailed in the Clinical and Laboratory Standards Institute (CLSI) handbook. […]
Recorded MIC (+11b) by entry
Give the quantity in µg/mL, number only.

Past entries and their recorded results:
>  <chemical_string>
C[C@@H](O)[C@H]1C(=O)N2C(C(=O)O)=C(S[C@@H]3CN[C@H](C(=O)N(C)C)C3)[C@H](C)[C@H]12

>  <assayed_system>
MRSA BAA-44

>  <readout>
MIC (+11b)

>  <units_of_measure>
µg/mL

>  <recorded_number>
1

$$$$
>  <chemical_string>
COc1cccc(OC)c1C(=O)N[C@@H]1C(=O)N2[C@@H]1SC(C)(C)[C@@H]2C(=O)O

>  <assayed_system>
MRSA BAA-44

>  <readout>
MIC (+11b)

>  <units_of_measure>
µg/mL

>  <recorded_number>
8

$$$$
>  <chemical_string>
Cc1nnc(SCC2=C(C(=O)O)N3C(=O)[C@@H](NC(=O)Cn4cnnn4)[C@H]3SC2)s1

>  <assayed_system>
MRSA BAA-44

>  <readout>
MIC (+11b)

>  <units_of_measure>
µg/mL

>  <recorded_number>
4

$$$$

Let's switch to this compound now.
Return reported MIC (+11b) for target or system MRSA BAA-44, item Cc1onc(-c2ccccc2)c1C(=O)N[C@@H]1C(=O)N2[C@@H]1SC(C)(C)[C@@H]2C(=O)O .
1

----------
# MIC per record follows
tested on: MRSA BAA-44; experiment: MIC of antibiotics in absence and presence of 11b (broth microdilution); assay type: cell-based, S. aureus; details: Staphylococcus aureus, antibiotic alone
# output: bare number, implied unit µg/mL

// below: answered molecules
>  <chemical_string>
COc1cccc(OC)c1C(=O)N[C@@H]1C(=O)N2[C@@H]1SC(C)(C)[C@@H]2C(=O)O

>  <readout>
MIC

>  <recorded_number>
128

$$$$
>  <chemical_string>
C[C@@H](O)[C@H]1C(=O)N2C(C(=O)O)=C(S[C@@H]3CN[C@H](C(=O)N(C)C)C3)[C@H](C)[C@H]12

>  <readout>
MIC

>  <recorded_number>
4

$$$$
>  <chemical_string>
Cc1onc(-c2ccccc2)c1C(=O)N[C@@H]1C(=O)N2[C@@H]1SC(C)(C)[C@@H]2C(=O)O

>  <readout>
MIC

>  <recorded_number>
32

$$$$

Report MIC under test system MRSA BAA-44 for Cc1nnc(SCC2=C(C(=O)O)N3C(=O)[C@@H](NC(=O)Cn4cnnn4)[C@H]3SC2)s1 .
128

----------
// values below are reported GI50 at 24 h
assay: Half growth inhibitory concentration (GI50), mammalian toxicity; assay type: cell-based; conditions: human, HeLa cells (human cervical adenocarcinoma)
Where a name gives a salt, the structure may show the parent alone.
Value expressed in µg/mL; do not type the unit.

Answered cases to consult:
>  <compound>
C=C1CN(C(=N)N)C[C@@H]2Nc3c(F)cc(Br)cc3[C@]12CCNS(=O)(=O)c1ccc(Cl)cc1

>  <GI50 at 24 h (µg/mL)>
40

$$$$
>  <compound>
C=C1CNC[C@@H]2Nc3c(F)cc(Br)cc3[C@]12CCNS(=O)(=O)c1ccc(Cl)cc1

>  <GI50 at 24 h (µg/mL)>
6.7

$$$$

Consider the additional compound presented here.
Fill in GI50 at 24 h for record C=C1CN(C(=O)C(F)(F)F)C[C@@H]2Nc3c(F)cc(Br)cc3[C@]12CCNS(=O)(=O)c1ccc(Cl)cc1 [TFA-ATI 11c]
19
